# Test system: Shigella flexneri
# PROCEDURE SUMMARY: growth AUC normalised to DMSO control (fraction of control); higher = less growth inhibition, active = hit call of the paper
# TEST PARAMETERS: 20 µM
Where a name gives a salt, the structure may show the parent alone.
Possible outcomes: TRUE for active, FALSE for inactive

INSERT INTO measurements (compound, cat) VALUES
  ('OCCN(CCO)c1nc(N2CCCCC2)c2nc(N(CCO)CCO)nc(N3CCCCC3)c2n1', 'FALSE'),
  ('COC(=O)C1=C(C)NC(C)=C(C(=O)OCCN(C)Cc2ccccc2)C1c1cccc([N+](=O)[O-])c1 (stereo not drawn) [Nicardipine hydrochloride]', 'FALSE'),
  ('O=c1[nH]c(=O)n([C@H]2C[C@H](O)[C@@H](CO)O2)cc1I', 'TRUE'),
  ('OC(Cn1cncn1)(Cn1cncn1)c1ccc(F)cc1F', 'FALSE'),
  ('O=c1[nH]c(=O)n([C@H]2C[C@H](O)[C@@H](CO)O2)cc1C(F)(F)F', 'FALSE'),
  ('CN1CCN(C(c2ccccc2)c2ccccc2)CC1 [Cyclizine hydrochloride]', 'FALSE'),
  ('Cc1cc(N)c2ccccc2[n+]1CCCCCCCCCC[n+]1c(C)cc(N)c2ccccc21 [Dequalinium dichloride]', 'FALSE'),
  ('CC(=O)OCC(=O)[C@@]12OC(C)(C)O[C@@H]1C[C@H]1[C@@H]3C[C@H](F)C4=CC(=O)C=C[C@]4(C)[C@@]3(F)[C@@H](O)C[C@@]12C [Fluocinonide]', 'FALSE');

* * *

# Tested on: Shigella flexneri
# PROCEDURE SUMMARY: growth AUC normalised to DMSO control (fraction of control); higher = less growth inhibition, active = hit call of the paper
# TEST PARAMETERS: 20 µM
Counter-ions that a name gives are not always drawn.
Collected growth AUC normalised to DMSO control values appear next to each entry.
PARAMETER: growth AUC normalised to DMSO control

INSERT INTO assay_data (molecule, parameter, recorded_number) VALUES
  ('Clc1ccc(C(Cn2ccnc2)OCc2csc3c(Cl)cccc23)c(Cl)c1 (centres undefined) [Sertaconazole nitrate]', 'growth AUC normalised to DMSO control', 1.06),
  ('Cc1cc(NC(=O)C2=C(O)c3ccccc3S(=O)(=O)N2C)no1 [Isoxicam]', 'growth AUC normalised to DMSO control', 0.974),
  ('C[C@]12CC[C@@H]3c4ccc(OS(=O)(=O)O)cc4CC[C@H]3[C@@H]1CCC2=O [Estropipate piperazine salt]', 'growth AUC normalised to DMSO control', 0.974),
  ('O=C1Cc2cc(CCN3CCN(c4nsc5ccccc45)CC3)c(Cl)cc2N1 [Ziprasidone hydrochloride monohydrate]', 'growth AUC normalised to DMSO control', 1.06);

* * *

# Test system: S. enterica typhimurium tolC KO;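 further: active when median AUC fell below 0.1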
# PROCEDURE SUMMARY: growth AUC normalised to DMSO control (median) (fraction of control); higher = less growth inhibition, active = hit call of the paper
# TEST PARAMETERS: 20 µM
Counter-ions that a name gives are not always drawn.
Outcome codes: class 1 = active, class 0 = inactive

INSERT INTO measurements (compound, cat) VALUES
  ('Nc1cc(-c2ccncc2)c[nH]c1=O [Amrinone]', 'class 0'),
  ('CC[C@@]1(O)C(=O)OCc2c1cc1n(c2=O)Cc2cc3c(CN(C)C)c(O)ccc3nc2-1 [Topotecan]', 'class 0'),
  ('Cc1ccc(/C(=C\CN2CCCC2)c2ccccn2)cc1 [Triprolidine hydrochloride]', 'class 0'),
  ('COC(c1ccccc1)(c1ccccc1)[C@H](Oc1nc(C)cc(C)n1)C(=O)O [Ambrisentan]', 'class 0'),
  ('C/C(=C(\CCOP(=O)(O)O)SC(=O)c1ccccc1)N(C=O)Cc1cnc(C)nc1N [Benfotiamine]', 'class 0'),
  ('CC(=O)N(CC(O)CN(C(C)=O)c1c(I)c(C(=O)NCC(O)CO)c(I)c(C(=O)NCC(O)CO)c1I)c1c(I)c(C(=O)NCC(O)CO)c(I)c(C(=O)NCC(O)CO)c1I (stereo not drawn) [Iodixanol]', 'class 0'),
  ('OCCN1CCN(CCCN2c3ccccc3Sc3ccc(C(F)(F)F)cc32)CC1 [Fluphenazine dihydrochloride]', 'class 0'),
  ('CCn1cc(C(=O)O)c(=O)c2cc(F)c(N3CCN(C)CC3)cc21 [Pefloxacin]', 'class 1');
